# System: SF-268 CNS
# PROTOCOL NOTES: NCI-60 one-dose screen, 48 h (100 = growth as untreated, 0 = no growth, -100 = all killed)
# MEASUREMENT CONDITIONS: 10 µM unless noted
The panel holds about 83,000 compounds, 20% with a hit somewhere; the sample as a whole holds those more often.

- MOLECULE: "CC1=CC[C@@H]2CC[C@]3(C)[C@H](CC[C@@H]4[C@@]5(C)CCCNC(C)(C)[C@@H]5CC[C@]43C)[C@H]2[C@@H]1C"
  growth [%]: 40.2
- MOLECULE: "COc1cccc(CCC(=O)c2cc3c(N)c(C(=O)Nc4cccc(Cl)c4C)sc3nc2C)c1"
  growth [%]: 37.3
- MOLECULE: "Fc1ccc(-n2cc(COc3ncnc4sc5c(c34)CCCC5)nn2)cc1Cl"
  growth [%]: 95.8
- MOLECULE: "COc1ccc(Nn2c(SCC(=O)Nc3nc(-c4ccc(Cl)cc4)cs3)nc(C)c2C)cc1"
  growth [%]: 66.1
- MOLECULE: "O=C1Nc2c(ccc(Cl)c2Cl)/C1=C/c1ccc(O)cc1"
  growth [%]: 89.1
- MOLECULE: "Clc1ccc(C2CC(c3cccc(Nc4ccncc4)c3)=NN2c2cc(Cl)cc(Cl)c2)cc1 (stereo not given)"
  growth [%]: 83.8
- MOLECULE: "CCCCCCN(C)Cc1ccc(OCCOc2ccc(CN(C)CCCCCC)cc2)cc1"
  growth [%]: 45.5
- MOLECULE: "CCCCCCCCCCN=C(N)N=C(N)N"
  growth [%]: 33.1
- MOLECULE: "COc1ccc(-c2ncc(-c3ccccc3)[nH]2)cc1OC"
  growth [%]: 103
- MOLECULE: "CC(=O)O[C@H]1CC[C@@]2(C)[C@@H](CC[C@@H]3[C@@H]2CC[C@@]2(C)[C@H]3CC[C@]2(O)C(C)=O)C1"
  growth [%]: 106
- MOLECULE: "COc1ccc(CC(C)=C(c2ccc(OCCN(C)C)cc2)c2ccc(OCCN(C)C)cc2)cc1"
  growth [%]: 82.7
- MOLECULE: "COc1cc(C(=O)c2cnc(-c3ccc4cc[nH]c4c3)[nH]2)cc(OC)c1OC"
  growth [%]: 10
- MOLECULE: "c1cnc2nc3c(cc2c1)oc1ccccc13"
  growth [%]: 97.1
- MOLECULE: "COc1ccc(-c2c(-c3ccccc3)noc2N)cc1OC"
  growth [%]: 107
- MOLECULE: "CCCOc1nc(SCCC)nc2c1cnn2-c1ccccc1"
  growth [%]: 87.7
- MOLECULE: "O=S(=O)(O)c1cc(O)c2c(N=Nc3ccc(Nc4ccccc4)c4c(S(=O)(=O)O)cccc34)cc(S(=O)(=O)O)cc2c1"
  growth [%]: 101
- MOLECULE: "CCC(C)N(CCNc1cc(OC)cc2cccnc12)CCC(C)C (stereo not given)"
  growth [%]: 78.6
- MOLECULE: "CCCCCCCCCCCCCCCC(=O)OC[C@@]1(O)C[C@@]23CC[C@@H]4C(C)(C)[C@H](O)CC[C@@]4(C)[C@@H]2CC[C@H]1C3"
  growth [%]: 101
- MOLECULE: "COc1cc(-c2cc(=O)oc3cc(O)ccc23)cc(OC)c1OC"
  growth [%]: 88.7
- MOLECULE: "CS(=O)(=O)c1ccc(-c2cc3c(oc2=O)-c2ccccc2OC3O)cc1 (stereo not given)"
  growth [%]: 96.6
- MOLECULE: "N#Cc1cc(-c2nc3ccccc3s2)c(=O)n(NS(=O)(=O)c2ccc(Cl)cc2)c1N"
  growth [%]: 97.8
- MOLECULE: "O=C1c2cccnc2C(=O)c2nc3cc(N4CCN(C5CC5)CC4)ccc3nc21"
  growth [%]: 12.5
- MOLECULE: "O=S(=O)(c1ccc(N/N=C\\c2ccccc2)cc1)c1ccc(N/N=C/c2ccccc2)cc1"
  growth [%]: 75.1
- MOLECULE: "CC(=O)Nc1ccc(C(=O)Nc2cc(-c3ccccc3)ccc2N)cc1"
  growth [%]: 68.2
- MOLECULE: "CC1(C)[C@H](O)CC[C@]2(C)[C@@H]1CC[C@@]13C[C@@H](CC[C@H]12)[C@@](O)(CO)C3"
  growth [%]: 108
- MOLECULE: "O=C(Nc1cccc(Cl)c1)c1cc(Cl)ccc1O"
  growth [%]: 18
- MOLECULE: "COc1ccc(/C=C/c2n[nH]c3ccc(N4CCOC4=O)cc23)cc1"
  growth [%]: 13
- MOLECULE: "CC(=O)N1N=C(c2cccc(Nc3ccncc3)c2)CC1c1ccccc1 (stereo not given)"
  growth [%]: 91
- MOLECULE: "Nc1cc(N)c2cccnc2c1O"
  growth [%]: 83.4
- MOLECULE: "C=Cc1cc[n+](CCCCCCCCCCCC)cc1"
  growth [%]: 99.7
- MOLECULE: "N#CC1=C(N)Oc2c(ccc3ccccc23)C1c1ccc([N+](=O)[O-])cc1 (stereo not given)"
  growth [%]: 79.6
- MOLECULE: "COc1ccc(NC(=O)c2sc3nc(C)c(C(O)c4ccc(OC)cc4)cc3c2N)cc1 (stereo not given)"
  growth [%]: 42
- MOLECULE: "COc1cc(C2CC(c3cccc(Nc4ccncc4)c3)=NN2c2ccc(Cl)cc2)cc(OC)c1OC (stereo not given)"
  growth [%]: 44.5
- MOLECULE: "Nc1ccccc1NC(=O)c1ccc(CN2CCC/C(=C\\c3cccc(Cl)c3)C2=O)cc1"
  growth [%]: 3.92
- MOLECULE: "Cc1ccc(C(=O)Nc2ccccc2C(=O)N/N=C(\\c2ccccc2)c2ccccn2)cc1"
  growth [%]: 20.2
- MOLECULE: "COc1ccc(C(O)c2cc3c(N)c(C(=O)Nc4cccc(Br)c4C)sc3nc2C)cc1 (stereo not given)"
  growth [%]: 30.1
- MOLECULE: "O=C(OCc1nc2nc(Cl)nc(N3CCOCC3)c2[nH]1)n1ccnc1"
  growth [%]: 5.74
- MOLECULE: "C[C@@H]1CN(Cc2ccc(/C=C/c3n[nH]c4ccc5nc(-c6cn[nH]c6C(F)(F)F)c6c(c5c34)CCCC6)cc2)C[C@H](C)O1"
  growth [%]: 36.5
- MOLECULE: "O=C(Nc1ccc(Cl)cc1)Nc1ccc(Cl)c(Cl)c1"
  growth [%]: 36.1
- MOLECULE: "N/C(=N\\N=C\\c1cc2ccccc2s1)N/N=C/c1cc2ccccc2s1"
  growth [%]: 102
